- System: 926638-142-R-J1-PDC complex spheroid viability
- experimentSummary: Anticancer human tumor 926638-142-R-J1-PDC patient-derived endometrial carcinoma cell line growth inhibition [POLQ]
- appliedConditions: second compound 10 µM; first compound 0.316 µM; stronger effect = lower value
So basically, the class depends on measured viability, T/C, and the ranges are low-valued = under 20%, mid-valued = from 20% up to 80%, high-valued = 80% and over

[
  {
    "molecule": "COc1cc2cc(C(=O)CCC(=O)O)sc2cc1OC + Nc1ccc(C#CCN(C(=O)Cc2ncc(C(F)(F)F)cc2C(F)(F)F)c2ccc(F)cc2)nn1",
    "targetOfAssay": "926638-142-R-J1-PDC complex spheroid viability",
    "assignedLabel": "high-valued"
  },
  {
    "molecule": "CCCS(=O)(=O)Nc1ccc(F)c(C(=O)c2c[nH]c3ncc(-c4ccc(Cl)cc4)cc23)c1F + Nc1ccc(C#CCN(C(=O)Cc2ncc(C(F)(F)F)cc2C(F)(F)F)c2ccc(F)cc2)nn1",
    "targetOfAssay": "926638-142-R-J1-PDC complex spheroid viability",
    "assignedLabel": "high-valued"
  },
  {
    "molecule": "COc1cccc2c1C(=O)c1c(O)c3c(c(O)c1C2=O)CC(O)(C(=O)CO)CC3OC1CC(N)C(O)C(C)O1 (stereo not given) + COC1C(OC(N)=O)C(O)C(Oc2ccc3c(O)c(NC(=O)c4ccc(O)c(CC=C(C)C)c4)c(=O)oc3c2C)OC1(C)C",
    "targetOfAssay": "926638-142-R-J1-PDC complex spheroid viability",
    "assignedLabel": "low-valued"
  },
  {
    "molecule": "COc1cccc2c1C(=O)c1c(O)c3c(c(O)c1C2=O)CC(O)(C(=O)CO)CC3OC1CC(N)C(O)C(C)O1 (stereo not given) + Cc1cccc(N(C)C(=O)C2C(O)CCN2c2nc(C)cc(C(F)(F)F)c2C#N)c1",
    "targetOfAssay": "926638-142-R-J1-PDC complex spheroid viability",
    "assignedLabel": "low-valued"
  },
  {
    "molecule": "COc1cccc2c1C(=O)c1c(O)c3c(c(O)c1C2=O)CC(O)(C(=O)CO)CC3OC1CC(N)C(O)C(C)O1 (stereo not given) + Nc1ccc(C#CCN(C(=O)Cc2ncc(C(F)(F)F)cc2C(F)(F)F)c2ccc(F)cc2)nn1",
    "targetOfAssay": "926638-142-R-J1-PDC complex spheroid viability",
    "assignedLabel": "mid-valued"
  },
  {
    "molecule": "C=CC(=O)N1CCN(c2nc(=O)n(-c3c(C)ccnc3C(C)C)c3nc(-c4c(O)cccc4F)c(F)cc23)C(C)C1 (stereo not given) + COC1C(OC(N)=O)C(O)C(Oc2ccc3c(O)c(NC(=O)c4ccc(O)c(CC=C(C)C)c4)c(=O)oc3c2C)OC1(C)C",
    "targetOfAssay": "926638-142-R-J1-PDC complex spheroid viability",
    "assignedLabel": "high-valued"
  },
  {
    "molecule": "CNCc1ccc(-c2[nH]c3cc(F)cc4c3c2CCNC4=O)cc1 + Cc1cccc(N(C)C(=O)C2C(O)CCN2c2nc(C)cc(C(F)(F)F)c2C#N)c1",
    "targetOfAssay": "926638-142-R-J1-PDC complex spheroid viability",
    "assignedLabel": "high-valued"
  },
  {
    "molecule": "CCc1c2c(nc3ccc(O)cc13)-c1cc3c(c(=O)n1C2)COC(=O)[C@]3(O)CC + Nc1ccc(C#CCN(C(=O)Cc2ncc(C(F)(F)F)cc2C(F)(F)F)c2ccc(F)cc2)nn1",
    "targetOfAssay": "926638-142-R-J1-PDC complex spheroid viability",
    "assignedLabel": "low-valued"
  },
  {
    "molecule": "Nc1ccn(C2OC(CO)C(O)C2(F)F)c(=O)n1 (stereo not given) + COC1C(OC(N)=O)C(O)C(Oc2ccc3c(O)c(NC(=O)c4ccc(O)c(CC=C(C)C)c4)c(=O)oc3c2C)OC1(C)C",
    "targetOfAssay": "926638-142-R-J1-PDC complex spheroid viability",
    "assignedLabel": "mid-valued"
  },
  {
    "molecule": "CC1COCCN1c1cc(-c2ccnn2C)c2ccnc(-c3ccn[nH]3)c2n1 (stereo not given) + COC1C(OC(N)=O)C(O)C(Oc2ccc3c(O)c(NC(=O)c4ccc(O)c(CC=C(C)C)c4)c(=O)oc3c2C)OC1(C)C",
    "targetOfAssay": "926638-142-R-J1-PDC complex spheroid viability",
    "assignedLabel": "mid-valued"
  }
]

* * *

Form field: viability, T/C (one value per entry).
- Test system: 926638-142-R-J1-PDC complex spheroid viability
- experimentSummary: Anticancer human tumor 926638-142-R-J1-PDC cell line growth inhibition [POLQ];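 note: spheroids exposed to drugs for one week before readout; percent viability relative to DMSO vehicle control wells set as 100%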
- appliedConditions: second compound 3.16 µM; first compound 0.0316 µM; stronger effect = lower value

[
  {
    "molecule": "CCCS(=O)(=O)Nc1ccc(F)c(C(=O)c2c[nH]c3ncc(-c4ccc(Cl)cc4)cc23)c1F + COC1C(OC(N)=O)C(O)C(Oc2ccc3c(O)c(NC(=O)c4ccc(O)c(CC=C(C)C)c4)c(=O)oc3c2C)OC1(C)C",
    "targetOfAssay": "926638-142-R-J1-PDC complex spheroid viability",
    "unitInfo": "%",
    "viability, T/C": 89.7
  },
  {
    "molecule": "COc1cc(C2c3cc4c(cc3C(OC3OC5COC(C)OC5C(O)C3O)C3COC(=O)C23)OCO4)cc(OC)c1O (stereo unspecified) + Nc1ccc(C#CCN(C(=O)Cc2ncc(C(F)(F)F)cc2C(F)(F)F)c2ccc(F)cc2)nn1",
    "targetOfAssay": "926638-142-R-J1-PDC complex spheroid viability",
    "unitInfo": "%",
    "viability, T/C": 83.3
  },
  {
    "molecule": "COc1cccc2c1C(=O)c1c(O)c3c(c(O)c1C2=O)CC(O)(C(=O)CO)CC3OC1CC(N)C(O)C(C)O1 (stereo unspecified) + Nc1ccc(C#CCN(C(=O)Cc2ncc(C(F)(F)F)cc2C(F)(F)F)c2ccc(F)cc2)nn1",
    "targetOfAssay": "926638-142-R-J1-PDC complex spheroid viability",
    "unitInfo": "%",
    "viability, T/C": 80.6
  },
  {
    "molecule": "Nc1ccn(C2OC(CO)C(O)C2(F)F)c(=O)n1 (stereo unspecified) + Nc1ccc(C#CCN(C(=O)Cc2ncc(C(F)(F)F)cc2C(F)(F)F)c2ccc(F)cc2)nn1",
    "targetOfAssay": "926638-142-R-J1-PDC complex spheroid viability",
    "unitInfo": "%",
    "viability, T/C": 80
  },
  {
    "molecule": "CCc1c2c(nc3ccc(O)cc13)-c1cc3c(c(=O)n1C2)COC(=O)[C@]3(O)CC + Cc1cccc(N(C)C(=O)C2C(O)CCN2c2nc(C)cc(C(F)(F)F)c2C#N)c1",
    "targetOfAssay": "926638-142-R-J1-PDC complex spheroid viability",
    "unitInfo": "%",
    "viability, T/C": 35.1
  },
  {
    "molecule": "COc1ccc([C@@H](O)c2cc(-c3ncnc4cc(N5CCOCC5)ccc34)c(F)cc2Cl)nn1 + COC1C(OC(N)=O)C(O)C(Oc2ccc3c(O)c(NC(=O)c4ccc(O)c(CC=C(C)C)c4)c(=O)oc3c2C)OC1(C)C",
    "targetOfAssay": "926638-142-R-J1-PDC complex spheroid viability",
    "unitInfo": "%",
    "viability, T/C": 96.4
  },
  {
    "molecule": "O=C(c1cc(Cc2n[nH]c(=O)c3ccccc23)ccc1F)N1CCN(C(=O)C2CC2)CC1 + Nc1ccc(C#CCN(C(=O)Cc2ncc(C(F)(F)F)cc2C(F)(F)F)c2ccc(F)cc2)nn1",
    "targetOfAssay": "926638-142-R-J1-PDC complex spheroid viability",
    "unitInfo": "%",
    "viability, T/C": 86.3
  },
  {
    "molecule": "CCCS(=O)(=O)Nc1ccc(F)c(C(=O)c2c[nH]c3ncc(-c4ccc(Cl)cc4)cc23)c1F + Cc1cccc(N(C)C(=O)C2C(O)CCN2c2nc(C)cc(C(F)(F)F)c2C#N)c1",
    "targetOfAssay": "926638-142-R-J1-PDC complex spheroid viability",
    "unitInfo": "%",
    "viability, T/C": 104
  },
  {
    "molecule": "COc1cc(C2c3cc4c(cc3C(OC3OC5COC(C)OC5C(O)C3O)C3COC(=O)C23)OCO4)cc(OC)c1O (stereo unspecified) + COC1C(OC(N)=O)C(O)C(Oc2ccc3c(O)c(NC(=O)c4ccc(O)c(CC=C(C)C)c4)c(=O)oc3c2C)OC1(C)C",
    "targetOfAssay": "926638-142-R-J1-PDC complex spheroid viability",
    "unitInfo": "%",
    "viability, T/C": 82
  },
  {
    "molecule": "O=c1[nH]cc(F)c(=O)[nH]1 + Cc1cccc(N(C)C(=O)C2C(O)CCN2c2nc(C)cc(C(F)(F)F)c2C#N)c1",
    "targetOfAssay": "926638-142-R-J1-PDC complex spheroid viability",
    "unitInfo": "%",
    "viability, T/C": 98.7
  },
  {
    "molecule": "COc1ccc([C@@H](O)c2cc(-c3ncnc4cc(N5CCOCC5)ccc34)c(F)cc2Cl)nn1 + Cc1cccc(N(C)C(=O)C2C(O)CCN2c2nc(C)cc(C(F)(F)F)c2C#N)c1",
    "targetOfAssay": "926638-142-R-J1-PDC complex spheroid viability",
    "unitInfo": "%",
    "viability, T/C": 83.5
  }
]
